Hello, the source for this data is the NIST ThermoML archive (doi:10.1021/je900482x), in case you need it.

method-summary: isobaric coefficient of expansion
experimental-parameters: 278.15 K; 40000 kPa; Liquid; Microcalorimeter
measurement-name: isobaric coefficient of expansion

// known answers, use as guide
Can you share its isobaric coefficient of expansion? I mean this compound: CCn1cc[n+](C)c1.O=S(=O)([N-]S(=O)(=O)C(F)(F)F)C(F)(F)F
0.000612 1/K

Now the same for CCCC[n+]1cccc(C)c1.F[B-](F)(F)F [1-butyl-3-methylpyridinium tetrafluoroborate]
0.00057 1/K

Also check CCn1cc[n+](C)c1.F[B-](F)(F)F [1-ethyl-3-methylimidazolium tetrafluoroborate]
0.000567 1/K

Next:
Which isobaric coefficient of expansion reading was recorded for the compound CCCCCCn1cc[n+](C)c1.F[B-](F)(F)F [1-hexyl-3-methylimidazolium tetrafluoroborate] ?
0.000572 1/K

Another compound: CCCCCC[n+]1ccn(C)c1.O=S(=O)([N-]S(=O)(=O)C(F)(F)F)C(F)(F)F
0.000612 1/K

Now consider CCCCCCCC[n+]1ccn(C)c1.F[B-](F)(F)F [1-methyl-3-octylimidazolium tetrafluoroborate] and answer again.
0.000572 1/K

====

Reported isobaric coefficient of expansion values for the following molecules.
method-summary: isobaric coefficient of expansion
experimental-parameters: 308.15 K; 30000 kPa; Liquid; Microcalorimeter

Reference set, count: 5
Item CCCCCCCC[n+]1ccn(C)c1.F[B-](F)(F)F [1-methyl-3-octylimidazolium tetrafluoroborate] has what recorded isobaric coefficient of expansion?
0.000565 1/K

Queued: CCCC[n+]1cccc(C)c1.F[B-](F)(F)F [1-butyl-3-methylpyridinium tetrafluoroborate]
0.00056 1/K

Param item: CCCCCCn1cc[n+](C)c1.F[B-](F)(F)F [1-hexyl-3-methylimidazolium tetrafluoroborate]
0.000565 1/K

# repeat for CCCCCC[n+]1ccn(C)c1.O=S(=O)([N-]S(=O)(=O)C(F)(F)F)C(F)(F)F
0.000609 1/K

Then what about the molecule CCn1cc[n+](C)c1.O=S(=O)([N-]S(=O)(=O)C(F)(F)F)C(F)(F)F ?
0.000611 1/K

Then there is this molecule:
isobaric coefficient of expansion lookup needed for CCn1cc[n+](C)c1.F[B-](F)(F)F [1-ethyl-3-methylimidazolium tetrafluoroborate] , thanks.
0.000561 1/K

====

method-summary: isobaric coefficient of expansion
experimental-parameters: 298.15 K; 5000 kPa; Liquid; Microcalorimeter
measurement-name: isobaric coefficient of expansion

Record request: isobaric coefficient of expansion value, item CCCCCCCC[n+]1ccn(C)c1.F[B-](F)(F)F [1-methyl-3-octylimidazolium tetrafluoroborate]
0.00061 1/K

// next record CCCC[n+]1cccc(C)c1.F[B-](F)(F)F [1-butyl-3-methylpyridinium tetrafluoroborate]
0.000594 1/K

What would you report for CCn1cc[n+](C)c1.O=S(=O)([N-]S(=O)(=O)C(F)(F)F)C(F)(F)F ?
0.000659 1/K

***
Reported isobaric coefficient of expansion, compound CCCCCCn1cc[n+](C)c1.F[B-](F)(F)F [1-hexyl-3-methylimidazolium tetrafluoroborate] : ____
0.00061 1/K

Now give it for CCn1cc[n+](C)c1.F[B-](F)(F)F [1-ethyl-3-methylimidazolium tetrafluoroborate] too.
0.000601 1/K

Input CCCCCC[n+]1ccn(C)c1.O=S(=O)([N-]S(=O)(=O)C(F)(F)F)C(F)(F)F
0.000664 1/K

====

method-summary: isobaric coefficient of expansion
experimental-parameters: 308.15 K; 10000 kPa; Liquid; Microcalorimeter
measurement-name: isobaric coefficient of expansion

// worked examples, isobaric coefficient of expansion included
Any idea what isobaric coefficient of expansion was measured for CCCCCCn1cc[n+](C)c1.F[B-](F)(F)F [1-hexyl-3-methylimidazolium tetrafluoroborate] ?
0.000596 1/K

Also need CCn1cc[n+](C)c1.O=S(=O)([N-]S(=O)(=O)C(F)(F)F)C(F)(F)F , thanks.
0.000644 1/K

And what about the compound CCCCCC[n+]1ccn(C)c1.O=S(=O)([N-]S(=O)(=O)C(F)(F)F)C(F)(F)F ?
0.000648 1/K

Similarly, CCn1cc[n+](C)c1.F[B-](F)(F)F [1-ethyl-3-methylimidazolium tetrafluoroborate] ?
0.000589 1/K

Record: CCCC[n+]1cccc(C)c1.F[B-](F)(F)F [1-butyl-3-methylpyridinium tetrafluoroborate]
0.000582 1/K

Consider the additional compound presented here.
Consider the compound CCCCCCCC[n+]1ccn(C)c1.F[B-](F)(F)F [1-methyl-3-octylimidazolium tetrafluoroborate] and give its measured isobaric coefficient of expansion.
0.000596 1/K

====

method-summary: isobaric coefficient of expansion
experimental-parameters: 338.15 K; 5000 kPa; Liquid; Microcalorimeter
measurement-name: isobaric coefficient of expansion

Here are 5 molecules together with their reported answers.
Recorded isobaric coefficient of expansion for CCCCCCCC[n+]1ccn(C)c1.F[B-](F)(F)F [1-methyl-3-octylimidazolium tetrafluoroborate] , please?
0.000591 1/K

Another molecule to check: CCCC[n+]1cccc(C)c1.F[B-](F)(F)F [1-butyl-3-methylpyridinium tetrafluoroborate]
0.000571 1/K

What do we get for CCCCCC[n+]1ccn(C)c1.O=S(=O)([N-]S(=O)(=O)C(F)(F)F)C(F)(F)F ?
0.000649 1/K

Similarly, CCn1cc[n+](C)c1.O=S(=O)([N-]S(=O)(=O)C(F)(F)F)C(F)(F)F ?
0.000643 1/K

Another: CCCCCCn1cc[n+](C)c1.F[B-](F)(F)F [1-hexyl-3-methylimidazolium tetrafluoroborate]
0.000591 1/K

---
Which isobaric coefficient of expansion is reported for this molecule? CCn1cc[n+](C)c1.F[B-](F)(F)F [1-ethyl-3-methylimidazolium tetrafluoroborate]
0.000582 1/K

====

method-summary: isobaric coefficient of expansion
experimental-parameters: 328.15 K; 20000 kPa; Liquid; Microcalorimeter
measurement-name: isobaric coefficient of expansion

Value lookup for isobaric coefficient of expansion; key = CCCC[n+]1cccc(C)c1.F[B-](F)(F)F [1-butyl-3-methylpyridinium tetrafluoroborate]
0.00056 1/K

Do the same for CCCCCCCC[n+]1ccn(C)c1.F[B-](F)(F)F [1-methyl-3-octylimidazolium tetrafluoroborate] please
0.000572 1/K

What would you report for CCCCCC[n+]1ccn(C)c1.O=S(=O)([N-]S(=O)(=O)C(F)(F)F)C(F)(F)F ?
0.000621 1/K

Okay, and CCn1cc[n+](C)c1.O=S(=O)([N-]S(=O)(=O)C(F)(F)F)C(F)(F)F ?
0.00062 1/K

Also, CCn1cc[n+](C)c1.F[B-](F)(F)F [1-ethyl-3-methylimidazolium tetrafluoroborate] please.
0.000566 1/K

Okay, now this compound:
I would be grateful if you could share the reported isobaric coefficient of expansion for CCCCCCn1cc[n+](C)c1.F[B-](F)(F)F [1-hexyl-3-methylimidazolium tetrafluoroborate] .
0.000572 1/K

====

method-summary: isobaric coefficient of expansion
experimental-parameters: 278.15 K; 50000 kPa; Liquid; Microcalorimeter
measurement-name: isobaric coefficient of expansion

GET /values?readout=isobaric coefficient of expansion&item= CCn1cc[n+](C)c1.F[B-](F)(F)F [1-ethyl-3-methylimidazolium tetrafluoroborate]
0.000555 1/K

How about CCCCCC[n+]1ccn(C)c1.O=S(=O)([N-]S(=O)(=O)C(F)(F)F)C(F)(F)F ?
0.000596 1/K

Same read-out for CCCCCCCC[n+]1ccn(C)c1.F[B-](F)(F)F [1-methyl-3-octylimidazolium tetrafluoroborate] ?
0.000558 1/K

Would you mind doing CCCC[n+]1cccc(C)c1.F[B-](F)(F)F [1-butyl-3-methylpyridinium tetrafluoroborate] as well?
0.00056 1/K

New cases:
What does the record list as isobaric coefficient of expansion for CCCCCCn1cc[n+](C)c1.F[B-](F)(F)F [1-hexyl-3-methylimidazolium tetrafluoroborate] ?
0.000558 1/K

# repeat for CCn1cc[n+](C)c1.O=S(=O)([N-]S(=O)(=O)C(F)(F)F)C(F)(F)F
0.0006 1/K

====

Let's look at some compounds and their measured isobaric coefficient of expansion.
method-summary: isobaric coefficient of expansion
experimental-parameters: 348.15 K; 35000 kPa; Liquid; Microcalorimeter

Reported isobaric coefficient of expansion for CCCCCC[n+]1ccn(C)c1.O=S(=O)([N-]S(=O)(=O)C(F)(F)F)C(F)(F)F : what is it?
0.000584 1/K

Next compound: CCCC[n+]1cccc(C)c1.F[B-](F)(F)F [1-butyl-3-methylpyridinium tetrafluoroborate]
0.00054 1/K

Same lookup for CCCCCCn1cc[n+](C)c1.F[B-](F)(F)F [1-hexyl-3-methylimidazolium tetrafluoroborate] , please.
0.000543 1/K

Okay, and CCCCCCCC[n+]1ccn(C)c1.F[B-](F)(F)F [1-methyl-3-octylimidazolium tetrafluoroborate] ?
0.000543 1/K

# iterate: CCn1cc[n+](C)c1.O=S(=O)([N-]S(=O)(=O)C(F)(F)F)C(F)(F)F
0.000588 1/K

Now turn to the next compound.
Bench note: what isobaric coefficient of expansion did CCn1cc[n+](C)c1.F[B-](F)(F)F [1-ethyl-3-methylimidazolium tetrafluoroborate] show?
0.00054 1/K
